Molecular target: NOP receptor (Homo sapiens, UniProt P41146)
Sequence (P41146 whole entry): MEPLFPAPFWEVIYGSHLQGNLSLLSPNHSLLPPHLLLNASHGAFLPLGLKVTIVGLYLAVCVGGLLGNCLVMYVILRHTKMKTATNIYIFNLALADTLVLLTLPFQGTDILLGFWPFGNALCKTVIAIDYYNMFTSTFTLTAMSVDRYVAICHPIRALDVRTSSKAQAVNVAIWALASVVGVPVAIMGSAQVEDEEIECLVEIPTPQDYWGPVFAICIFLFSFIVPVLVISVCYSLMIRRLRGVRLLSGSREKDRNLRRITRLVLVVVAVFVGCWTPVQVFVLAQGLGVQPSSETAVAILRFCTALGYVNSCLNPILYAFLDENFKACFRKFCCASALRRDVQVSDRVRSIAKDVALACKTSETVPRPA
Assay: competition, [3H]N/OFQ
attributeMeasured: pKi
Answers are plain numbers, as −log10 of the molar value.

q: Which pKi value belongs to XGGFTGXRKSARKRKNQ ([Nphe1,Aib7,Arg14,Lys15]N/OFQ-NH2; X1 = Nphe, X7 = Aib, C-terminal amide) [UFP-111] ?
a: 7.75
